Record set: Ki | Coagulation factor VII (Homo sapiens, UniProt P08709) | literature, multiple sources.

// solved cases for Ki follow
CC(C)(C)[C@@H](O)C(=O)N1CCC[C@H]1C(=O)NCc1cc(Cl)ccc1CN.O=C(O)C(F)(F)F	> 15 µM
NC[C@H]1CC[C@H](C(=O)N[C@@H](Cc2ccccc2)c2nc(-c3ccc4c(N)n[nH]c4c3)c[nH]2)CC1.O=C(O)C(F)(F)F	> 10.9 µM
CCOc1cc(C(Nc2ccc(C(=N)N)cc2)C(=O)NCc2ccccc2)ccc1OCc1ccccc1 (centres undefined)	0.13 µM

Please turn your attention to the following entry.
In: Consider the molecule CC(C)(C)[C@@H](O)C(=O)N1CCS(=O)(=O)C[C@H]1C(=O)NCc1cc(Cl)ccc1CN.O=C(O)C(F)(F)F . State its measured Ki.
Out: > 15 µM

----------
Protein target, amino acids: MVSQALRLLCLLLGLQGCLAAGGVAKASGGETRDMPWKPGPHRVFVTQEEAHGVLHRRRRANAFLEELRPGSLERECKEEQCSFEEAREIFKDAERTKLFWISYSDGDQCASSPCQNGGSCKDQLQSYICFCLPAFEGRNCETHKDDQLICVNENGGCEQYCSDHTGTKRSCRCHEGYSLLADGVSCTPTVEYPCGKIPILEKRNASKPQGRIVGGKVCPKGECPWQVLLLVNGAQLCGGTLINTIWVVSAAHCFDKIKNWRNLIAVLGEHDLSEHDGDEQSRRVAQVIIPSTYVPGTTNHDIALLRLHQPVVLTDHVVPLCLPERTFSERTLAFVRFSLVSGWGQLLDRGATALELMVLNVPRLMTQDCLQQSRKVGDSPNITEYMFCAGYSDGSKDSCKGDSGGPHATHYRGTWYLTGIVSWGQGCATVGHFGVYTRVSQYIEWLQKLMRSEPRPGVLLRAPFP
pKi: −log10 of the molar value.
Record set: pKi | the protein given by its sequence | literature, multiple sources.

NC[C@H]1CC[C@H](C(=O)N[C@@H](Cc2ccccc2)c2nc(-c3ccc(C(=O)O)cc3)c[nH]2)CC1 (mixture of isomers)	< 4.96
NC[C@H]1CC[C@H](C(=O)N[C@@H](Cc2ccccc2)c2nc(-c3cccc(CC(=O)O)c3)c[nH]2)CC1	< 4.96
COC(=O)Nc1ccc(-c2cc([C@H](Cc3ccccc3)NC(=O)/C=C/c3cc(Cl)ccc3-n3cnnn3)nnc2C)cc1	< 4.88

Please turn your attention to the following entry.
In: Consider the molecule N=C(N)c1ccc(CNC(=O)C(CCC2CCNCC2)NC(=O)[C@@H](CC2CCCCC2)NCC(=O)O)cc1 (mixture of isomers) . State its measured pKi.
Out: < 4.00

----------
Record set: Ki | Coagulation factor VII (Homo sapiens, UniProt P08709) | literature, multiple sources.
Molecular target: Coagulation factor VII (Homo sapiens, UniProt P08709)
Sequence (P08709 whole entry): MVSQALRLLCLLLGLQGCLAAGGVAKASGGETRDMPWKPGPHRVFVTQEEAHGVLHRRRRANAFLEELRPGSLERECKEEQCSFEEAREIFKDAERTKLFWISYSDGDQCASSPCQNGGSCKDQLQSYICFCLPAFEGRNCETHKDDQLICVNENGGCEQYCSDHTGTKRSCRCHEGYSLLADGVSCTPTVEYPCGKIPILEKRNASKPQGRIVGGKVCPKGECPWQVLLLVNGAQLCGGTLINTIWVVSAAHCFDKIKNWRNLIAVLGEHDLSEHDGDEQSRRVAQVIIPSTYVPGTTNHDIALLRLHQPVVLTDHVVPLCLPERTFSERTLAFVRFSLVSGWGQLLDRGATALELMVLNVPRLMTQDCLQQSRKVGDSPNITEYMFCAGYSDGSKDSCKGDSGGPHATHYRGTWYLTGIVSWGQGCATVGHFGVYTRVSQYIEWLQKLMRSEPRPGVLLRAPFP

// solved cases for Ki follow
O=C(N[C@H]1C[C@H](CO)C[C@H]1NC(=O)c1ccc(Cl)s1)c1ccc(-n2ccccc2=O)cc1	> 11 µM
Cc1cc(C)cc(-c2cc(C(CC(=O)O)C(=O)O)cc(-c3nc4cc(C(=N)N)ccc4[nH]3)c2O)c1 (stereo not drawn)	0.029 µM

Please turn your attention to the following entry.
In: Consider the compound CN1CCN(C(=O)C[C@H](NC(=O)/C=C/c2cc(Cl)ccc2-n2cnnn2)c2nc(-c3ccc4[nH]c(=O)cc(O)c4c3)c(Cl)[nH]2)CC1 . State its measured Ki.
Out: > 13.3 µM

----------
Record set: Ki | Coagulation factor VII (Homo sapiens) | literature, multiple sources.

// solved cases for Ki follow
CC(C)CC(=O)Nc1cc(-c2ccc(C(N)=O)cc2C(=O)O)cc(C2CC(C)(c3ccccc3)c3cc(C(=N)N)ccc3N2)c1 (single isomer, unassigned; enantiomer 1)	> 10.9 µM
CN1CCCC1CCN(Cc1ccc2ccc(C(=N)N)cc2c1)C(=O)c1cccc2ccccc12 (stereo unspecified)	0.142 µM
C[S+]([O-])Cc1nc(Cc2ccccc2)n(CC(=O)N[C@@H](CCCCN)B2O[C@@H]3C[C@@H]4C[C@@H](C4(C)C)[C@]3(C)O2)n1 (stereo partly specified)	2.1 µM
CO[C@H](COS(=O)(=O)[O-])C(=O)N[C@H](CC(C)C)C(=O)N1[C@H](C(=O)NCCC2=CC[N+](=C(N)N)C2)C[C@@H]2C[C@H](O)[C@@H](O)C[C@@H]21	0.108 µM
CC1(C)[C@@H]2C[C@H]3OB([C@H](CCCCN)NC(=O)Cn4nc(CC#N)nc4Cc4cccc([N+](=O)[O-])c4)O[C@@]3(C)[C@H]1C2	> 3 µM

I would be grateful if you could provide Ki for each of the following entries.
1. COc1ccc(CCN(Cc2ccc3ccc(C(=N)N)cc3c2)C(=O)c2cccc3ccccc23)cc1OC
2. CC(C)(C)[C@@H](O)C(=O)N1CCCC[C@H]1C(=O)NCc1cc(Cl)ccc1CN.O=C(O)C(F)(F)F
3. NC[C@H]1CC[C@H](C(=O)N[C@@H](Cc2ccccc2)c2nc(-c3ccc(C(N)=O)cc3)c(Cl)[nH]2)CC1.O=C(O)C(F)(F)F
4. NC[C@H]1CC[C@H](C(=O)N[C@@H](Cc2ccccc2)c2nc(-c3ccccc3)c[nH]2)CC1.O=C(O)C(F)(F)F
5. CN(C)C(=O)c1ccc(-c2c[nH]c([C@H](Cc3ccccc3)NC(=O)[C@H]3CC[C@H](CN)CC3)n2)cc1

Out:
0.133 µM
> 15 µM
> 10.9 µM
> 10.9 µM
> 10.9 µM

In: Consider the compound CS(=O)(=O)c1ccccc1-c1ccc(NC(=O)c2cc(C(F)(F)F)nn2-c2ccc3onc(N)c3c2)c(F)c1 . State its measured Ki.
Out: > 15 µM

----------
Record set: pKi | Coagulation factor VII (Homo sapiens, UniProt P08709) | literature, multiple sources.
Target: Coagulation factor VII (Homo sapiens, UniProt P08709)
Sequence (P08709 whole entry): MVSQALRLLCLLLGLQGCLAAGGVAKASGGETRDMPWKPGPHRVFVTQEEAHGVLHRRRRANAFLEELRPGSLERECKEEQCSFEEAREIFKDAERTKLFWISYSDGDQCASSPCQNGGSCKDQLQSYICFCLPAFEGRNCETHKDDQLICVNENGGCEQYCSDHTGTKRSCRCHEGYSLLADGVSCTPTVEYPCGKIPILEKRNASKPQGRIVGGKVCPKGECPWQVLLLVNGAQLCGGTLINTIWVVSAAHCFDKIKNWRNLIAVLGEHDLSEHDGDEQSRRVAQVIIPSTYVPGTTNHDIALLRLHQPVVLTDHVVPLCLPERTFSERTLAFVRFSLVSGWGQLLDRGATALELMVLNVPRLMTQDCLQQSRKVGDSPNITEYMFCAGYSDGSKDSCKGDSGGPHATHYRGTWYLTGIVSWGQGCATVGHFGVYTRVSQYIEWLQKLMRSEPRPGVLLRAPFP
One number for each entry, as −log10 of the molar value.

// solved cases for pKi follow
Nc1ccc2[nH]c(-c3cc(CC(=O)O)cc(-c4cccc(CNC(=O)Nc5ccccc5)c4)c3O)cc2n1	7.70
N=C(N)c1ccc2ccc(CN(CCC[n+]3cc[nH]c3)C(=O)c3cccc4ccccc34)cc2c1	6.55

I would be grateful if you could provide pKi for each of the following entries.
1. N=C(N)c1ccc2[nH]c(-c3cc(C(CC(=O)O)C(=O)O)ccc3O)nc2c1 (centres undefined)
2. CC(C)(C)OC(=O)/C=C/c1nc(Cc2ccccc2)n(CC(=O)N[C@@H](CCCCN)B2O[C@@H]3C[C@@H]4C[C@@H](C4(C)C)[C@]3(C)O2)n1
3. COc1cc(CNc2ccc(C(=N)N)cc2)ccc1OCc1ccccc1

Out:
1: 5.19; 2: 5.57; 3: 6.00

In: Consider the molecule N=C(N)c1ccc2c(c1)[C@@H](c1ccccc1)C[C@@H](c1ccccc1-c1ccccc1C(=O)O)N2 (racemic) . State its measured pKi.
Out: 5.66
